These measurements were taken from the supplement of paper PMC5844555.

System: MYC
Experiment: 3' UTR reporter interaction score (median-centred robust z-score of log2 firefly/Renilla activity); higher = less repression of the 3' UTR reporter
Details: HEK293T; 48 h
Assign Condition met to entries whose 3' UTR reporter interaction score meets or exceeds 0.2; assign Condition not met to the rest.

- UGGUUCUAGACUUGCCAACUA: Condition met
- UAAUACUGCCUGGUAAUGAUGAC: Condition met
- CAAAACUGGCAAUUACUUUUGC: Condition not met
- UGAGAACUGAAUUCCAUGGGUU: Condition not met

Exam item: Could you tell me if the measured 3' UTR reporter interaction score of UUGUGCUUGAUCUAACCAUGU reaches 0.2 or more?
Marked response: Condition not met

Exam item: Could you tell me if the measured 3' UTR reporter interaction score of UCUUGGAGUAGGUCAUUGGGUGG reaches 0.2 or more?
Marked response: Condition met

Exam item: Could you tell me if the measured 3' UTR reporter interaction score of AGUAUUCUGUACCAGGGAAGGU reaches 0.2 or more?
Marked response: Condition met

Exam item: Could you tell me if the measured 3' UTR reporter interaction score of CGAAUGUUGCUCGGUGAACCCCU reaches 0.2 or more?
Marked response: Condition met

Exam item: Could you tell me if the measured 3' UTR reporter interaction score of UACCCAUUGCAUAUCGGAGUUG reaches 0.2 or more?
Marked response: Condition met

Exam item: Could you tell me if the measured 3' UTR reporter interaction score of AACACACCUGGUUAACCUCUUU reaches 0.2 or more?
Marked response: Condition not met

Exam item: Could you tell me if the measured 3' UTR reporter interaction score of UGUCUGCCCGCAUGCCUGCCUCU reaches 0.2 or more?
Marked response: Condition not met

Exam item: Could you tell me if the measured 3' UTR reporter interaction score of UCAGUGCAUCACAGAACUUUGU reaches 0.2 or more?
Marked response: Condition met

Exam item: Could you tell me if the measured 3' UTR reporter interaction score of AAAACGGUGAGAUUUUGUUUU reaches 0.2 or more?
Marked response: Condition not met

Exam item: Could you tell me if the measured 3' UTR reporter interaction score of UAAUACUGCCGGGUAAUGAUGG reaches 0.2 or more?
Marked response: Condition met

Exam item: Could you tell me if the measured 3' UTR reporter interaction score of GGUCCAGAGGGGAGAUAGG reaches 0.2 or more?
Marked response: Condition not met

Exam item: Could you tell me if the measured 3' UTR reporter interaction score of AUGUAUAAAUGUAUACACAC reaches 0.2 or more?
Marked response: Condition not met

Exam item: Could you tell me if the measured 3' UTR reporter interaction score of CUGGCCCUCUCUGCCCUUCCGU reaches 0.2 or more?
Marked response: Condition met

Exam item: Could you tell me if the measured 3' UTR reporter interaction score of CAGUAACAAAGAUUCAUCCUUGU reaches 0.2 or more?
Marked response: Condition not met

Exam item: Could you tell me if the measured 3' UTR reporter interaction score of UGGUGCGGAGAGGGCCCACAGUG reaches 0.2 or more?
Marked response: Condition not met

Exam item: Could you tell me if the measured 3' UTR reporter interaction score of CAUAAAGUAGAAAGCACUAC reaches 0.2 or more?
Marked response: Condition not met

Exam item: Could you tell me if the measured 3' UTR reporter interaction score of UAUUGCACUCGUCCCGGCCUC reaches 0.2 or more?
Marked response: Condition met

====

Test system: ZEB2
Assay: 3' UTR reporter interaction score (median-centred robust z-score of log2 firefly/Renilla activity); higher = less repression of the 3' UTR reporter
Conditions: HEK293T; 48 h
Catalogue of 3' UTR reporter interaction score values
Answer as a number with no unit attached.

- UCCUUCAUUCCACCGGAGUCUG: -2.53
- AUCGUGCAUCCUUUUAGAGUGU: -2.58
- UGAGACCUCUGGGUUCUGAGCU: 1.27
- CACACACUGCAAUUACUUUUGC: -2.35
- UGGAGGAGAAGGAAGGUGAUG: 3.77
- AUCACACAAAGGCAACUUUUGU: -0.747
- AAAGUGCUUCCCUUUGGACUGU: -0.113
- UUGAGAAUGAUGAAUCAUUAGG: -0.412

Query sequence follows.
Short answer for UCGUGCAUCCCUUUAGAGUGUU : 3' UTR reporter interaction score was -1.93

====

Catalogue of 3' UTR reporter interaction score values
Tested on: EZH2
Assay: 3' UTR reporter interaction score (median-centred robust z-score of log2 firefly/Renilla activity); higher = less repression of the 3' UTR reporter
Details: HEK293T; 48 h
Answer as a number with no unit attached.

The cases that follow already have their 3' UTR reporter interaction score on record.
* UAAUGCCCCUAAAAAUCCUUAU | 0.868
* CUCCUGACUCCAGGUCCUGUGU | -0.51
* ACUGCAGUGAAGGCACUUGU | -0.638
* UUGCAUAUGUAGGAUGUCCCAU | 0.731
* AAGGAGCUCACAGUCUAUUGAG | -0.897

Query sequence follows.
Form field, 3' UTR reporter interaction score with EZH2, item AGAUCAGAAGGUGAUUGUGGCU : 0.782

====

System: MYB
Assay: 3' UTR reporter interaction score (median-centred robust z-score of log2 firefly/Renilla activity); higher = less repression of the 3' UTR reporter
Details: HEK293T; 48 h
Catalogue of 3' UTR reporter interaction score values
Answer as a number with no unit attached.

The cases that follow already have their 3' UTR reporter interaction score on record.
* AGAGGUAUAGGGCAUGGGAAAA | 0.665
* AAUUGCACUUUAGCAAUGGUGA | -0.332
* UAGCACCAUUUGAAAUCGGU | 0.262
* AUUCUAAUUUCUCCACGUCUUUG | 0.162
* UAAGGUGCAUCUAGUGCAGUUA | 0.34

Short answer for AGGAGGCAGCGCUCUCAGGAC : 3' UTR reporter interaction score was 0.571

Short answer for AUGAUCCAGGAACCUGCCUCU : 3' UTR reporter interaction score was -0.332

Short answer for CUGCAAAGGGAAGCCCUUUCU : 3' UTR reporter interaction score was 1.16

====

Test system: PHF6
Experiment: 3' UTR reporter interaction score (median-centred robust z-score of log2 firefly/Renilla activity); higher = less repression of the 3' UTR reporter
Settings: HEK293T; 48 h
Note to self: class = bucket of 3' UTR reporter interaction score, per interval 1 (below -0.6), interval 2 (-0.6 to below 0.4), interval 3 (0.4 or more)

Previously resolved entries follow.
* GUUCAAAUCCAGAUCUAUAAC | interval 2
* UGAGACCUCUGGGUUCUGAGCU | interval 2
* ACUUUAACAUGGAAGUGCUUUCU | interval 2
* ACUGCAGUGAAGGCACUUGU | interval 1
* AAAGUGCAUCCUUUUAGAGUGUUAC | interval 2
* AACUGGCCCUCAAAGUCCCGCUUU | interval 1
* UGACAACUAUGGAUGAGCUCU | interval 2
* UGUAAACAUCCUACACUCUCAGC | interval 3
* UGUGACUGGUUGACCAGAGGG | interval 3
* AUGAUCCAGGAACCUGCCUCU | interval 1

From here, focus on the item given below.
Exam item: # classify by 3' UTR reporter interaction score band: GGAGAAAUUAUCCUUGGUGUGU
Marked response: interval 3

====

Catalogue of 3' UTR reporter interaction score values
Test system: ZEB2
Test: 3' UTR reporter interaction score (median-centred robust z-score of log2 firefly/Renilla activity); higher = less repression of the 3' UTR reporter
Details: HEK293T; 48 h
Answer as a number with no unit attached.

Short answer for GCCUGCUGGGGUGGAACCUGG : 3' UTR reporter interaction score was 0.26

Short answer for UAGCAGCACAUAAUGGUUUGUG : 3' UTR reporter interaction score was 1.33

Short answer for AGCAGCAUUGUACAGGGCUAUGA : 3' UTR reporter interaction score was 0.465

Short answer for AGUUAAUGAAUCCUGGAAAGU : 3' UTR reporter interaction score was 0.251

====

System: ZEB2
Test: 3' UTR reporter interaction score (median-centred robust z-score of log2 firefly/Renilla activity); higher = less repression of the 3' UTR reporter
Settings: HEK293T; 48 h
measurement.name: 3' UTR reporter interaction score
Answer as a number with no unit attached.

The cases that follow already have their 3' UTR reporter interaction score on record.
* GUGGCUGCACUCACUUCCUUC | -0.491
* UGCACCAUGGUUGUCUGAGCAUG | -1.45
* AAGCCUGCCCGGCUCCUCGGG | 1.11
* AAGCUGCCAGUUGAAGAACUGU | 0.607
* AAAGCGCUUCCCUUUGCUGGA | 0.684

Short answer for AGGGGGAAAGUUCUAUAGUCCU : 3' UTR reporter interaction score was 2.84

Short answer for CAGUGCAAUGUUAAAAGGGCAU : 3' UTR reporter interaction score was -0.231

Short answer for GUCAACACUUGCUGGUUUCCUC : 3' UTR reporter interaction score was -0.604

Short answer for CGGGUGGAUCACGAUGCAAUUU : 3' UTR reporter interaction score was -1.87
